FYI, the data here is from PubChem BioAssay (NCI).

Entries and their measured TGI follow.
system: MCF7 breast; assay: NCI tumour cell line growth inhibition, 48 h

// worked examples, TGI included
INSERT INTO measurements (compound, recorded_value) VALUES
  ('CCOC(=O)CCC1(CCC(=O)OCC)CCCCCCCCC(CCC(=O)OCC)(CCC(=O)OCC)C(=O)C1=O', '> 100 µM'),
  ('CN1CCCOC(c2ccc(Cl)cc2)O1 (centres undefined)', '> 100 µM'),
  ('COCCn1cnc2c(Cl)nc(Nc3ccccc3)nc21', '> 100 µM');

Now look at this entry.
Query: What value of TGI has been recorded for this entry: CC(Cl)CN1c2ccccc2Sc2ccc(Cl)cc21 (centres undefined)
Result: > 10 µM

----------
tested on: A549 NSCLC; assay: NCI tumour cell line growth inhibition, 48 h
measured_property: TGI (µM)
Answer with a number only, understood to be in µM.

Before answering, review these 3 worked examples.
INSERT INTO results (query_smiles, unit_name, recorded_value) VALUES
  ('CNCCn1c(=O)c2cc(OC)c(OC)cc2c2cnc3cc4c(cc3c21)OCO4', 'µM', 1.31),
  ('Cc1c2c(C(N)=O)nccc2c(C)c2c1c1ccccc1n2Cc1ccccc1', 'µM', 35.4),
  ('CSc1ccc2c(cc1=O)[C@@H](NC(=O)c1cc(O)c(O)c(O)c1)CCc1cc(O)c(O)c(O)c1-2', 'µM', 92);

Consider the record given below.
Query: Entry under review: `C=C(C)[C@@H]1CC[C@]2(C)[C@H](CC[C@@H]3[C@@H]([C@@](C)(O)CCC=C(C)C)CC[C@]32C)[C@@]1(C)CCC(=O)O` . Reported TGI?
Result: 91.9

----------
The entries below come with measured TGI values attached.
test system: UACC-62 melanoma; assay: NCI tumour cell line growth inhibition, 48 h
Where a SMILES comes first, the peptide text is derived from it. The star is where a group is joined. Cbz = O=C(OCc1ccccc1)*

A selection of reference data follows.
INSERT INTO measurements (compound, assay_system, measured_property, recorded_value) VALUES
  ('CCCCCCCCCCCC(=O)OC[C@@H](C[As](=O)(O)O)OC(=O)CCCCCCCCCCC', 'UACC-62 melanoma', 'TGI', '6.94 µM'),
  ('c1ccc2c(c1)c1ccccc1c1ccccc21', 'UACC-62 melanoma', 'TGI', '> 100 µM'),
  ('C1=NC(N(Cc2ccccc2)Cc2ccccc2)N(Cc2ccccc2)N1 (stereo not given)', 'UACC-62 melanoma', 'TGI', '27.2 µM');

Query: What measured TGI goes with `COc1cc(-c2nnc3n2NC=C(C(=O)O)S3)cc(OC)c1OC` ?
Result: > 100 µM

Query: Tell me the measured TGI of CCOC(=O)CCC(NC(=O)C(Cc1ccccc1)NC(=O)OCc1ccccc1)C(=O)OCC (stereo not drawn) (Cbz-Phe-Glu(OEt)-OEt; configuration not given here) , please.
Result: 32.5 µM

Query: Form field: reported TGI of C/C=C\C(CC(=O)NCC(=O)c1c[nH]c2ccccc12)CC(=O)OC (stereo not given)
Result: > 100 µM

Query: Quick one: TGI of `NCCCN(CCCN)CCc1cn(C(=O)c2ccccc2)cn1` ?
Result: 23 µM

Query: TGI lookup needed for `COc1cc2nc(-c3cccs3)nc(Cl)c2cc1OC` , thanks.
Result: > 100 µM

Query: Name the reported TGI value associated with the compound CC12CCC(=O)N1c1cccnc1N2 (stereo not given)
Result: > 100 µM

Query: Name the recorded TGI for `N#Cc1c(-c2ccco2)cc(-c2ccc(N)cc2)[nH]c1=O` .
Result: > 100 µM

Query: Can you look up the measured TGI of `Nc1nc(SCc2ccccc2Cl)c2[nH]cnc2n1` for me?
Result: > 100 µM
